# system: human SGLT1 (Homo sapiens (Human), UniProt P13866)
# Sequence (P13866 whole entry): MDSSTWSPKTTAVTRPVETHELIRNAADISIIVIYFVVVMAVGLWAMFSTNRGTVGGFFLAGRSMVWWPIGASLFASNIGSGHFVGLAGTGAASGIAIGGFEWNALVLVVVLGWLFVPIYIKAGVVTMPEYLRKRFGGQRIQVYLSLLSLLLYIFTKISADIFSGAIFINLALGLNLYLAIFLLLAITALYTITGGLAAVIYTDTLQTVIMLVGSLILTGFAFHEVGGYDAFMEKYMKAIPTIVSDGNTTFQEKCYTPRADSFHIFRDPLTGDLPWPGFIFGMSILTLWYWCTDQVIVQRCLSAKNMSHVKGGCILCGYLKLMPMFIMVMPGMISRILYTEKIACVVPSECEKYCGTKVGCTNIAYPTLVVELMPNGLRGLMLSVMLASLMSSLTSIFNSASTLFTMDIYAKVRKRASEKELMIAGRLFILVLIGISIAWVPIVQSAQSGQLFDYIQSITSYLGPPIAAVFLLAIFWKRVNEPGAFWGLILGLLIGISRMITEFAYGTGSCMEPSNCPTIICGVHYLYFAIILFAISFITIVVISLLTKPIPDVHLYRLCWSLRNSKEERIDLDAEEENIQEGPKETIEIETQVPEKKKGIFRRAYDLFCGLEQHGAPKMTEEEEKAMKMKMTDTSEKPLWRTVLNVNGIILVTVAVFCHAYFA
# test: SGLT1 inhibitory activity: 14C-AMG uptake into CHO-K1 cell line stably expressing human SGLT1
# Format: cell-based
# measurement.conditions: CHO-K1, at 0.1 uM
reported.metric: inhibition at 0.1 µM (%)

INSERT INTO assay_data (molecule, system, reported_metric, measurement) VALUES
  ('CCCc1cccc(-c2cc(NC(=O)C3CC[S+]([O-])CC3)nn2-c2ccccc2)c1 (stereo not shown) [Example 317]', 'human SGLT1 (Homo sapiens (Human), UniProt P13866)', 'inhibition at 0.1 µM', 40),
  ('CCCN(C)C(=O)c1cccc(-c2cc(NC(=O)[C@@H]3CNC(=O)C3)nn2-c2ccccc2)c1 [Example 430]', 'human SGLT1 (Homo sapiens (Human), UniProt P13866)', 'inhibition at 0.1 µM', 8),
  ('C[C@@H]1C[C@H](n2nc(NC(=O)[C@H]3CNC(=O)C3)cc2-c2cccc(OC(F)(F)F)c2)C[C@H](C)O1 [Example 219]', 'human SGLT1 (Homo sapiens (Human), UniProt P13866)', 'inhibition at 0.1 µM', 20),
  ('O=C1C[C@H](C(=O)Nc2cc(-c3cccc(CN4CCCC4)c3)n(-c3ccccc3)n2)CN1 [Example 428]', 'human SGLT1 (Homo sapiens (Human), UniProt P13866)', 'inhibition at 0.1 µM', 31),
  ('C[C@@H](OCc1cc(-c2cc(NC(=O)[C@@H]3CNC(=O)C3)nn2-c2ccccc2)ccc1F)C(F)(F)F [Example 557]', 'human SGLT1 (Homo sapiens (Human), UniProt P13866)', 'inhibition at 0.1 µM', 48),
  ('CCCc1cccc(-c2cc(NC(=O)C3CNC(=O)C34CC4)nn2-c2ccccc2)c1 (stereo not shown) [Example 361]', 'human SGLT1 (Homo sapiens (Human), UniProt P13866)', 'inhibition at 0.1 µM', 33),
  ('CCC(F)(F)c1cccc(-c2cc(NC(=O)[C@H]3CNC(=O)C3)nn2CCOC(C)C)c1 [Example 175]', 'human SGLT1 (Homo sapiens (Human), UniProt P13866)', 'inhibition at 0.1 µM', 40),
  ('O=C1COC(C(=O)Nc2cc(-c3cccc(OC(F)(F)F)c3)n(-c3ccccc3)n2)CN1 (stereo not shown) [Example 276]', 'human SGLT1 (Homo sapiens (Human), UniProt P13866)', 'inhibition at 0.1 µM', 30),
  ('O=C1C[C@H](C(=O)Nc2cc(-c3cccc(C#CC4CC4)c3)n(-c3ccccc3)n2)CN1 [Example 532]', 'human SGLT1 (Homo sapiens (Human), UniProt P13866)', 'inhibition at 0.1 µM', 26),
  ('CCCc1cccc(-c2cc(NC(=O)C3CNC(=O)C(C)C3)nn2-c2ccccc2)c1 (racemic) [Example 292]', 'human SGLT1 (Homo sapiens (Human), UniProt P13866)', 'inhibition at 0.1 µM', 43),
  ('O=C1C[C@H](C(=O)Nc2cc(-c3cccc(S(=O)(=O)CCC(F)(F)F)c3)n(-c3ccccc3)n2)CN1 [Example 551]', 'human SGLT1 (Homo sapiens (Human), UniProt P13866)', 'inhibition at 0.1 µM', 42),
  ('C[C@@H](OCc1cc(F)cc(-c2cc(NC(=O)[C@@H]3CNC(=O)C3)nn2C2CCOCC2)c1)C(F)(F)F [Example 583]', 'human SGLT1 (Homo sapiens (Human), UniProt P13866)', 'inhibition at 0.1 µM', 48),
  ('CCN1C(=O)NC[C@H]1C(=O)Nc1cc(-c2cccc(OC(F)(F)F)c2)n(-c2ccccc2)n1 [Example 296]', 'human SGLT1 (Homo sapiens (Human), UniProt P13866)', 'inhibition at 0.1 µM', 48),
  ('CC(C)CS(=O)(=O)c1cccc(-c2cc(NC(=O)[C@@H]3CNC(=O)C3)nn2-c2ccccc2)c1 [Example 553]', 'human SGLT1 (Homo sapiens (Human), UniProt P13866)', 'inhibition at 0.1 µM', 31),
  ('O=C1C[C@H](C(=O)Nc2cc(-c3cccc(CO[C@@H]4CCOC4)c3)n(-c3ccccc3)n2)CN1 [Example 536]', 'human SGLT1 (Homo sapiens (Human), UniProt P13866)', 'inhibition at 0.1 µM', 15),
  ('CC(C)(C)C#Cc1cccc(-c2cc(NC(=O)[C@@H]3CNC(=O)C3)nn2-c2ccccc2)c1 [Example 499]', 'human SGLT1 (Homo sapiens (Human), UniProt P13866)', 'inhibition at 0.1 µM', 4),
  ('O=C1C[C@H](C(=O)Nc2cc(-c3cccc(CS(=O)(=O)CC(F)(F)F)c3)n(-c3ccccc3)n2)CN1 [Example 552]', 'human SGLT1 (Homo sapiens (Human), UniProt P13866)', 'inhibition at 0.1 µM', 8),
  ('C[C@@H]1C[C@@H](n2nc(NC(=O)[C@H]3CNC(=O)[C@@H]3C)cc2-c2cccc(OC(F)(F)F)c2)C[C@H](C)O1 [Example 220]', 'human SGLT1 (Homo sapiens (Human), UniProt P13866)', 'inhibition at 0.1 µM', 16),
  ('O=C1C[C@H](C(=O)Nc2cc(-c3cccc(S(=O)(=O)CC(F)(F)F)c3)n(-c3ccccc3)n2)CN1 [Example 550]', 'human SGLT1 (Homo sapiens (Human), UniProt P13866)', 'inhibition at 0.1 µM', 29),
  ('O=C1C[C@H](C(=O)Nc2cc(-c3cccc(CO[C@H]4CCCOC4)c3)n(-c3ccccc3)n2)CN1 [Example 539]', 'human SGLT1 (Homo sapiens (Human), UniProt P13866)', 'inhibition at 0.1 µM', 35),
  ('O=C1C[C@H](C(=O)Nc2cc(-c3cccc(C(=O)NCC(F)(F)F)c3)n(-c3ccccc3)n2)CN1 [Example 433]', 'human SGLT1 (Homo sapiens (Human), UniProt P13866)', 'inhibition at 0.1 µM', 8),
  ('C[C@@H](OCc1cc(-c2cc(NC(=O)[C@@H]3CNC(=O)C3)nn2-c2ccccc2)cc(C(F)(F)F)c1)C(F)(F)F [Example 544]', 'human SGLT1 (Homo sapiens (Human), UniProt P13866)', 'inhibition at 0.1 µM', 21);
